Measured values drawn from patent US20260109776A1 for this set.

target: human CD40 on cells (human, UniProt P25942 21-277); experiment: cell-based or functional assay
Sequence (P25942 21-277 limits assumed): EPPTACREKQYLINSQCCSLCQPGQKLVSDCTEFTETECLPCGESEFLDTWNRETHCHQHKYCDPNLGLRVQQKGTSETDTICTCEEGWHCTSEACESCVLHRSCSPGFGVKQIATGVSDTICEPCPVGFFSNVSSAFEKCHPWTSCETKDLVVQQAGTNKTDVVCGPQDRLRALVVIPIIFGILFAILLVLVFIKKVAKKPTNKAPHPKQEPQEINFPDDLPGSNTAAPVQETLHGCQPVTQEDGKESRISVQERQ
Below, each of the binders is paired with its reported human B cell proliferation, no crosslinking, % Max Activity value.
Answer in %, number only, no unit symbol.

Please review the following examples before continuing.
- binder: "30A12 (antibody, IgG4, V domains shown, also called 4878-1) VH: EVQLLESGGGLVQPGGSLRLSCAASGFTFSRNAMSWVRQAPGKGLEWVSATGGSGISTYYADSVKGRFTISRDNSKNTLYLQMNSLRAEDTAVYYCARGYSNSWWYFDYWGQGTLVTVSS VL: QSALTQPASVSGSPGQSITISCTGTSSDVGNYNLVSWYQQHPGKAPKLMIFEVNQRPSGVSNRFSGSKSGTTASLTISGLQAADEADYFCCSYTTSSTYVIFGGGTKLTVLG"
  result.number: 8.6
- binder: "4G7 (antibody, IgG4, V domains shown, also called 4869-1) VH: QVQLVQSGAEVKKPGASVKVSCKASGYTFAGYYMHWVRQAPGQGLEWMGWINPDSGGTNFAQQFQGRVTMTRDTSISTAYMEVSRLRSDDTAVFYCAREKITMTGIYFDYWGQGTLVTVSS VL: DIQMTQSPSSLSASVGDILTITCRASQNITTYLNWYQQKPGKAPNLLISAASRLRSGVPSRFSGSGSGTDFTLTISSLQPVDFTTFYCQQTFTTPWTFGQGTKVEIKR"
  result.number: 6
- binder: "36F3 (antibody, IgG4, V domains shown, also called 4891-1) VH: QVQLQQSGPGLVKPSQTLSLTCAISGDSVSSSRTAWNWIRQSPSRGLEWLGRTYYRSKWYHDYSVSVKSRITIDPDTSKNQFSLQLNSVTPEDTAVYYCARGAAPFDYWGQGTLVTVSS VL: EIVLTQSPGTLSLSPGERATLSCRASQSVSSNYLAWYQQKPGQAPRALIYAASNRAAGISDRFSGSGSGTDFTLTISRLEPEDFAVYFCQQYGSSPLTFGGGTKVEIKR"
  result.number: 8.2

Here is the next item to consider.
Data request: Look up human B cell proliferation, no crosslinking, % Max Activity: 39C2 (antibody, IgG4, V domains shown, also called 4887-1) VH: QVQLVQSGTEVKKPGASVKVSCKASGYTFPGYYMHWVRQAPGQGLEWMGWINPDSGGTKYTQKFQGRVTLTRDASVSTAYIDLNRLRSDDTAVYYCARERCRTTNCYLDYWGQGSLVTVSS VL: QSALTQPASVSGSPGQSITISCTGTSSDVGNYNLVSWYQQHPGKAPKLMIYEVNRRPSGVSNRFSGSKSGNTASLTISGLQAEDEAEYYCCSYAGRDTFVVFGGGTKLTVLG
Data returned: 6.1
